# Test system: KM12
# ASSAY DETAILS: Growth inhibition of human KM12 cells at 10 uM incubated for 48 hrs by sulforhodamine B assay relative to control
# Type: functional
# TEST SETTINGS: read-out: GI
As shown below, each of these compounds has a reported inhibition of growth at 10 µM value.

# STRUCTURE SMILES STRING, TESTED ON, inhibition of growth at 10 µM
records = [
    ("Cc1cc(C)n(CC(=O)Nc2ccc(-c3nc4ccccc4s3)cc2)n1", "KM12", "-0.27%"),
    ("O=C(Cn1ccc2ccccc21)Nc1ccc(-c2nc3ccccc3s2)cc1", "KM12", "-6.39%"),
    ("O=C(Cn1c2ccccc2c2ccccc21)Nc1ccc(-c2nc3ccccc3s2)cc1", "KM12", "0.15%"),
    ("O=C(Cn1cnc2ccccc21)Nc1ccc(-c2nc3ccccc3s2)cc1", "KM12", "24.9%"),
]

====

// inhibition of growth at 10 µM lookup, one value per entry
# Tested on: CCRF-CEM
# ASSAY DETAILS: Growth inhibition of human CCRF-CEM cells at 10 uM incubated for 48 hrs by sulforhodamine B assay relative to control
# Type: functional
# TEST SETTINGS: read-out: GI
TEST READOUT: inhibition of growth at 10 µM

# STRUCTURE SMILES STRING, OBS VALUE
records = [
    ("Cc1cc(C)n(CC(=O)Nc2ccc(-c3nc4ccccc4s3)cc2)n1", "1.49%"),
    ("O=C(CNc1nc(-c2ccc(Cl)cc2)cs1)Nc1ccc(-c2nc3ccccc3s2)cc1", "7.04%"),
    ("Cc1cc(NCC(=O)Nc2ccc(-c3nc4ccccc4s3)cc2)no1", "46.3%"),
    ("O=C(CNc1ccccc1)Nc1ccc(-c2nc3ccccc3s2)cc1", "74.3%"),
    ("CN1CCN(CC(=O)Nc2ccc(-c3nc4ccccc4s3)cc2)CC1", "36.3%"),
    ("O=C(Cn1ccc2ccccc21)Nc1ccc(-c2nc3ccccc3s2)cc1", "2.97%"),
    ("NS(=O)(=O)c1ccc(NCC(=O)Nc2ccc(-c3nc4ccccc4s3)cc2)cc1", "93.8%"),
    ("O=C(CNc1c(Cl)cccc1Cl)Nc1ccc(-c2nc3ccccc3s2)cc1", "97.8%"),
]

====

Reported values of inhibition of growth at 10 µM for individual entries
# Test system: RXF 393
# ASSAY DETAILS: Growth inhibition of human RXF 393 cells at 10 uM incubated for 48 hrs by sulforhodamine B assay relative to control
# Type: functional
# TEST SETTINGS: read-out: GI
TEST READOUT: inhibition of growth at 10 µM (%)

# STRUCTURE SMILES STRING, TESTED ON, READING UNIT, OBS VALUE
rows = [
    ("O=C(CN1C(=O)C(=O)c2ccccc21)Nc1ccc(-c2nc3ccccc3s2)cc1", "RXF 393", "%", 4.81),
    ("Cc1ccc(NCC(=O)Nc2ccc(-c3nc4ccccc4s3)cc2)cc1", "RXF 393", "%", 10.7),
    ("O=C(CNc1c(Cl)cccc1Cl)Nc1ccc(-c2nc3ccccc3s2)cc1", "RXF 393", "%", 13.4),
    ("O=C(CNc1ccc(Cl)cc1)Nc1ccc(-c2nc3ccccc3s2)cc1", "RXF 393", "%", 15.8),
    ("COc1ccc(NCC(=O)Nc2ccc(-c3nc4ccccc4s3)cc2)cc1", "RXF 393", "%", -1.89),
    ("Cc1cc(C)n(CC(=O)Nc2ccc(-c3nc4ccccc4s3)cc2)n1", "RXF 393", "%", -29),
    ("Cc1cc(NCC(=O)Nc2ccc(-c3nc4ccccc4s3)cc2)no1", "RXF 393", "%", -4.8),
    ("O=C(Cn1cncn1)Nc1ccc(-c2nc3ccccc3s2)cc1", "RXF 393", "%", -25.3),
    ("O=C(Cn1ccnc1)Nc1ccc(-c2nc3ccccc3s2)cc1", "RXF 393", "%", -2.19),
]

====

inhibition of growth at 10 µM values by entry
# Test system: SF-539
# ASSAY DETAILS: Growth inhibition of human SF-539 cells at 10 uM incubated for 48 hrs by sulforhodamine B assay relative to control
# Format: functional
# TEST SETTINGS: read-out: GI

# STRUCTURE SMILES STRING, READING UNIT, inhibition of growth at 10 µM
records = [
    ("Cc1ccc(NCC(=O)Nc2ccc(-c3nc4ccccc4s3)cc2)cc1", "%", 2.9),
    ("Cc1cc(C)n(CC(=O)Nc2ccc(-c3nc4ccccc4s3)cc2)n1", "%", 1.4),
    ("O=C(CNC1CCCCC1)Nc1ccc(-c2nc3ccccc3s2)cc1", "%", 12.5),
    ("O=C(Cn1cnc2ccccc21)Nc1ccc(-c2nc3ccccc3s2)cc1", "%", 22.9),
    ("O=C(Cn1ccnc1)Nc1ccc(-c2nc3ccccc3s2)cc1", "%", 18.7),
    ("O=C(Cn1cncn1)Nc1ccc(-c2nc3ccccc3s2)cc1", "%", -7.74),
    ("O=C(CNc1c(Cl)cccc1Cl)Nc1ccc(-c2nc3ccccc3s2)cc1", "%", 20.1),
    ("O=C(Cn1c2ccccc2c2ccccc21)Nc1ccc(-c2nc3ccccc3s2)cc1", "%", 4.12),
    ("COc1ccc(NCC(=O)Nc2ccc(-c3nc4ccccc4s3)cc2)cc1", "%", 3.41),
]

====

# System: HL-60(TB)
# ASSAY DETAILS: Growth inhibition of human HL-60(TB) cells at 10 uM incubated for 48 hrs by sulforhodamine B assay relative to control
# Assay type: functional
# TEST SETTINGS: read-out: GI
# inhibition of growth at 10 µM per entry
TEST READOUT: inhibition of growth at 10 µM (%)

# STRUCTURE SMILES STRING, OBS VALUE
records = [
    ("Cc1cc(NCC(=O)Nc2ccc(-c3nc4ccccc4s3)cc2)no1", 3.55),
    ("O=C(CN(c1ccccc1)c1ccccc1)Nc1ccc(-c2nc3ccccc3s2)cc1", -1.45),
    ("O=C(CNc1nc(-c2ccc(Cl)cc2)cs1)Nc1ccc(-c2nc3ccccc3s2)cc1", 0.71),
    ("O=C(CNc1ccc(Cl)cc1)Nc1ccc(-c2nc3ccccc3s2)cc1", 29),
    ("O=C(Cn1ccc2ccccc21)Nc1ccc(-c2nc3ccccc3s2)cc1", 0.1),
    ("Cc1ccc(NCC(=O)Nc2ccc(-c3nc4ccccc4s3)cc2)cc1", 18.2),
    ("O=C(CN1C(=O)C(=O)c2ccccc21)Nc1ccc(-c2nc3ccccc3s2)cc1", 5.84),
    ("O=C(Cn1ccnc1)Nc1ccc(-c2nc3ccccc3s2)cc1", 22.7),
]

====

# System: A549
# ASSAY DETAILS: Growth inhibition of human A549/ATCC cells at 10 uM incubated for 48 hrs by sulforhodamine B assay relative to control
# Assay type: functional
# TEST SETTINGS: read-out: GI
We begin with a simple list: items and their reported inhibition of growth at 10 µM.

# STRUCTURE SMILES STRING, inhibition of growth at 10 µM [%]
records = [
    ("O=C(Cn1ccc2ccccc21)Nc1ccc(-c2nc3ccccc3s2)cc1", 1.71),
    ("O=C(CNc1nc2ccccc2s1)Nc1ccc(-c2nc3ccccc3s2)cc1", -0.04),
    ("O=C(CNc1nnc(-c2ccc(Cl)cc2)o1)Nc1ccc(-c2nc3ccccc3s2)cc1", 4.18),
    ("NS(=O)(=O)c1ccc(NCC(=O)Nc2ccc(-c3nc4ccccc4s3)cc2)cc1", 7.37),
    ("O=C(Cn1cncn1)Nc1ccc(-c2nc3ccccc3s2)cc1", 11.9),
]

====

# Test system: SK-MEL-2
# ASSAY DETAILS: Growth inhibition of human SK-MEL-2 cells at 10 uM incubated for 48 hrs by sulforhodamine B assay relative to control
# Format: functional
# TEST SETTINGS: read-out: GI

# STRUCTURE SMILES STRING, READING UNIT, inhibition of growth at 10 µM
data = [
    ("O=C(CN1C(=O)C(=O)c2ccccc21)Nc1ccc(-c2nc3ccccc3s2)cc1", "%", 0.87),
    ("O=C(CNc1ccccc1)Nc1ccc(-c2nc3ccccc3s2)cc1", "%", -4.93),
    ("NS(=O)(=O)c1ccc(NCC(=O)Nc2ccc(-c3nc4ccccc4s3)cc2)cc1", "%", 12.2),
    ("O=C(CN(c1ccccc1)c1ccccc1)Nc1ccc(-c2nc3ccccc3s2)cc1", "%", -0.42),
    ("O=C(CN1CCOCC1)Nc1ccc(-c2nc3ccccc3s2)cc1", "%", -14.6),
    ("O=C(CNC1CCCCC1)Nc1ccc(-c2nc3ccccc3s2)cc1", "%", -4.63),
]
